Experimental System: Perilipin-5 (Homo sapiens) + 1-acylglycerol-3-phosphate O-acyltransferase ABHD5 (Homo sapiens) (UniProt Q00G26+Q8WTS1)
Sequence (Q00G26 whole entry, looked up): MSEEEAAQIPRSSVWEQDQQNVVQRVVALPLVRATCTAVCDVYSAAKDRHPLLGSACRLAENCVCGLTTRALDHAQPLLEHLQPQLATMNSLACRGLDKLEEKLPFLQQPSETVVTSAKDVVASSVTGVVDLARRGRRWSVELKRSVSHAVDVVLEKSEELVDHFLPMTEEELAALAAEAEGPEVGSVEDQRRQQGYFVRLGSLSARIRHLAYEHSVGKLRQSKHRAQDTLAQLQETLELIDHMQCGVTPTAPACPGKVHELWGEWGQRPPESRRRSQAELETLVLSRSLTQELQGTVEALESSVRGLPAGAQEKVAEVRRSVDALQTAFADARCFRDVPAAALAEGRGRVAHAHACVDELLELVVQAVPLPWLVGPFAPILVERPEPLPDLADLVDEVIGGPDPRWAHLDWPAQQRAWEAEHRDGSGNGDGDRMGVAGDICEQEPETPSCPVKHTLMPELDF
Sequence (Q8WTS1 whole entry, looked up): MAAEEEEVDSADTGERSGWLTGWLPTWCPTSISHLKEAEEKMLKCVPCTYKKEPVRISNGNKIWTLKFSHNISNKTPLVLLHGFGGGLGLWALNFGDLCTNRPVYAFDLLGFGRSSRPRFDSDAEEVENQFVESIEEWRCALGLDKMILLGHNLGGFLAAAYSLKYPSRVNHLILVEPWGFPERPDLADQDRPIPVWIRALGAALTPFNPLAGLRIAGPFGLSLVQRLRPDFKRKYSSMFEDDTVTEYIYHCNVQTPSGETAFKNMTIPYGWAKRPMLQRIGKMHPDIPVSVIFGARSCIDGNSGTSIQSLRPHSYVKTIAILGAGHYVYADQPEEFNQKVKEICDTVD
Experimental Protocol: blockers of ABHD5 binding to perilipin-5 – cell lysate, split luciferase complementation, luminescence, NIH validation set, pilot screen (AID 493035)
Test Conditions: split G. princeps luciferase complementation, lysates, 4 h; at 7.9 µM
The whole screen tested about 2,000 compounds, of which about 45 (2%) were called active.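 Rule for the calls: active = inhibition above the mean of all tested compounds plus 3 SD (cut at about 49% in these data); inactive = the rest.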 For the sample, actives were picked, then their nearest neighbours and some compounds at random.
Outcome codes: Yes (active), No (inactive)

[
  {
    "Structure Smiles String": "O=C(O)CCCCCCNC(=O)c1cncc(O)c1",
    "Class Label": "No"
  },
  {
    "Structure Smiles String": "COc1ccccc1/C=C/C(=O)OCCN1CCOCC1",
    "Class Label": "No"
  },
  {
    "Structure Smiles String": "Nc1cc(-c2ccncc2)c[nH]c1=O",
    "Class Label": "Yes"
  },
  {
    "Structure Smiles String": "COc1ccc(C2C(=O)c3ccccc3C2=O)cc1",
    "Class Label": "No"
  },
  {
    "Structure Smiles String": "CCOC(=O)C(=Cc1ccccc1OC)C(=O)OCC",
    "Class Label": "Yes"
  },
  {
    "Structure Smiles String": "Cc1nonc1CN(C)C(=O)c1ccc(OC2CCN(C(=O)c3cccnc3)CC2)cc1",
    "Class Label": "No"
  },
  {
    "Structure Smiles String": "Cc1ccc(-c2nnc(-c3ccc4c(c3)OCO4)o2)cc1",
    "Class Label": "No"
  }
]

---

Experimental System: Perilipin-5 (Homo sapiens) + 1-acylglycerol-3-phosphate O-acyltransferase ABHD5 (Homo sapiens) (UniProt Q00G26+Q8WTS1)
Experimental Protocol: blockers of ABHD5 binding to perilipin-5 – cell lysate, split luciferase complementation, luminescence, NIH validation set, pilot screen (AID 493035)
Test Conditions: split G. princeps luciferase complementation, lysates, 4 h; at 7.9 µM
Hit rate of the full screen: of about 2,000 compounds, about 45 (2%) were called active.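 How the source made its calls: active means inhibition above the mean of all tested compounds plus 3 SD (cut at about 49% in these data); inactive means the rest.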 Many of the other results were omitted from the sample, so actives are more common in it than they were.
Possible outcomes: active, inactive

[
  {
    "Molecule": "O=C1ON=C(c2ccc(Cl)cc2)/C1=C/c1ccc(O)cc1",
    "Class Label": "active"
  },
  {
    "Molecule": "O=C1C=CC(=O)C(C2=C3C(=O)N(CCc4ccccc4)CC(=O)N3CCC2)=C1",
    "Class Label": "active"
  },
  {
    "Molecule": "O=C(O)C1[C@H]2C(=O)N(C3CCCC3)C[C@]23C=C[C@H]1O3 (some centres undefined)",
    "Class Label": "inactive"
  },
  {
    "Molecule": "COc1ccc2oc(=O)c(C(=O)N3CCN(c4ccccc4)CC3)cc2c1",
    "Class Label": "inactive"
  }
]
